Read-out: xenobiotic metabolism (CYP1A2), CYP1A2 (gene 1544)
Measurement protocol: CLD_CYP1A2_24hr: CellzDirect (CLD) Gene Expression Assay for xenobiotic metabolism (CYP1A2) at 24 hours (AID 2283683)
Records with an inconclusive call do not appear. Active and inactive are the calls of the source. The calls were made as follows: active = hit-call score of the fitted dose curve at least 0.9, where 1 is the maximum; inconclusive = response in the unintended direction; inactive = score below 0.9.
A correct response names exactly one class from true for active, false for inactive

Would you please look over these solved cases?
Compound	Class
COC(=O)c1ccc(CNS(C)(=O)=O)cc1S(=O)(=O)NC(=O)Nc1nc(OC)cc(OC)n1	false
COC(=O)c1cccc(C)c1S(=O)(=O)NC(=O)Nc1nc(OCC(F)(F)F)nc(N(C)C)n1	true
CCSC(=O)N(CC(C)C)CC(C)C	false
Cc1nn(C)c(Oc2ccccc2)c1C=NOCc1ccc(C(=O)OC(C)(C)C)cc1	true
Oc1ccc(C(c2ccc(O)cc2)C(Cl)(Cl)Cl)cc1	false

[Q] Could you please tell me the result logged for `C#CCOC(=O)[C@@H](C)Oc1ccc(Oc2ncc(Cl)cc2F)cc1` in this assay?
[A] false

[Q] Could you please tell me the result logged for `O=C(Nc1ccc([N+](=O)[O-])cc1Cl)c1cc(Cl)ccc1O` in this assay?
[A] true

* * *

Read-out: Cytochrome P450 (CYP1A2), CYP1A2 (gene 1544)
Measurement protocol: LTEA_HepaRG_CYP1A2: Life Technologies and Expression Analysis (LTEA) Assay for Cytochrome P450 (CYP1A2) using HepaRG (AID 2283479)
Protocol conditions: mRNA level, 48 h; actives raise or lower the signal
The source made the active and inactive calls. Rule for the calls: active = hit-call score of the fitted dose curve at least 0.9, where 1 is the maximum; inactive = score below 0.9.
A correct response names exactly one class from active, inactive

Would you please look over these solved cases?
Compound	Class
OB(O)O	inactive
CCCOC(=O)c1ccc(C(=O)OCCC)nc1	active
CCN(Cc1c(F)cccc1Cl)c1c([N+](=O)[O-])cc(C(F)(F)F)cc1[N+](=O)[O-]	active
COC(=O)CSc1cc(N=c2sc(=O)n3n2CCCC3)c(F)cc1Cl	inactive
CCCCOC(=O)C(C)Oc1ccc(Oc2ccc(C(F)(F)F)cn2)cc1 (configuration not stated)	inactive

[Q] Could you please tell me the result logged for `CCCOC(=O)NCCCN(C)C` in this assay?
[A] inactive

[Q] Could you please tell me the result logged for CCCCC(CC)CN1C(=O)C2C3C=CC(C3)C2C1=O (configuration not stated) in this assay?
[A] active

[Q] Could you please tell me the result logged for `CCCN(CCC)c1c([N+](=O)[O-])cc(C(F)(F)F)c(N)c1[N+](=O)[O-]` in this assay?
[A] inactive

[Q] Could you please tell me the result logged for `CC(C)CCCCCCc1ccc(O)cc1` in this assay?
[A] inactive

[Q] Could you please tell me the result logged for CCOC(=O)C(C)Oc1ccc(Oc2cnc3cc(Cl)ccc3n2)cc1 (configuration not stated) in this assay?
[A] active

[Q] Could you please tell me the result logged for `CC(C)(C)[C@@H](O)[C@@H](Cc1ccc(Cl)cc1)n1cncn1` in this assay?
[A] active

* * *

Read-out: ABC Transporter (ABCC3), ABCC3 (gene 8714)
Measurement protocol: LTEA_HepaRG_ABCC3: Life Technologies and Expression Analysis (LTEA) Assay for ABC Transporter (ABCC3) using HepaRG (AID 2283462)
Protocol conditions: mRNA level, 48 h; actives raise or lower the signal
Calls of active or inactive are those of the source. The calls were made as follows: active = hit-call score of the fitted dose curve at least 0.9, where 1 is the maximum; inactive = score below 0.9.
A correct response names exactly one class from active, inactive

Compound	Class
O=C(c1ccc(O)cc1O)c1ccc(O)cc1O	inactive
c1ccc2[nH]c(-c3cscn3)nc2c1	inactive
OB(O)O	inactive
CC(=O)[C@H]1CC[C@H]2[C@@H]3CCC4=CC(=O)CC[C@]4(C)[C@H]3CC[C@]12C	active
N#CSCSc1nc2ccccc2s1	inactive

[Q] Could you please tell me the result logged for `CSC(=O)c1cccc2nnsc12` in this assay?
[A] inactive

[Q] Could you please tell me the result logged for CCC(C)OC(=O)N1CCCCC1CCO (configuration not stated) in this assay?
[A] inactive

[Q] Could you please tell me the result logged for `Cc1nn(C)c(Oc2ccccc2)c1C=NOCc1ccc(C(=O)OC(C)(C)C)cc1` in this assay?
[A] active

[Q] Could you please tell me the result logged for `CC(=O)S[C@@H]1CC2=CC(=O)CC[C@]2(C)[C@H]2CC[C@@]3(C)[C@@H](CC[C@@]34CCC(=O)O4)[C@H]12` in this assay?
[A] inactive

[Q] Could you please tell me the result logged for CCCCCCC(C)OC(=O)COc1nc(F)c(Cl)c(N)c1Cl (configuration not stated) in this assay?
[A] inactive

[Q] Could you please tell me the result logged for `CCOC(=O)NCCOc1ccc(Oc2ccccc2)cc1` in this assay?
[A] inactive

[Q] Could you please tell me the result logged for `CC(C)CCCCCCc1ccc(O)cc1` in this assay?
[A] inactive
